- assayOverview: Clearance in Sprague-Dawley rat
- Assay type: ADME, organism-based
- cond: in vivo
reportedEndpoint: clearance (mL/min/kg)
Report only the number, with the unit mL/min/kg understood.

Name the reported clearance value associated with the compound Cn1ccnc1[C@]1(CNC(=O)c2cc3cc(C(F)(F)F)ccc3o2)NC(=O)NC1=O 4.8

Name the reported clearance value associated with the compound O=C1NC(=O)[C@](CNC(=O)c2cc3cc(Cl)ccc3o2)(c2nccs2)N1 4

Name the reported clearance value associated with the compound Cn1ccnc1[C@]1(CNC(=O)c2cc3cc(Cl)ccc3o2)NC(=O)NC1=O 13

----------
- targetOfAssay: A disintegrin and metalloproteinase with thrombospondin motifs 4 (Homo sapiens, UniProt O75173)
I'd be grateful if you could share measured pIC50 for these entries.
# pIC50 is unitless: minus log10 of the molar concentration; print number only

Name the reported pIC50 value associated with the compound C[C@]1(CNC(=O)COc2ccc(Cl)cc2)NC(=O)NC1=O 7.13

Name the reported pIC50 value associated with the compound C[C@]1(CNC(=O)c2cc3cc(Cl)ccc3o2)NC(=O)NC1=O (racemic) 6.96

Name the reported pIC50 value associated with the compound C[C@@]1(O)CCCN(S(=O)(=O)c2ccc(OCc3ccc(F)cc3Cl)cc2)[C@H]1C(=O)NO 9.00

Name the reported pIC50 value associated with the compound Cn1ccnc1[C@]1(CNC(=O)c2cc3cc(Cl)ccc3o2)NC(=O)NC1=O 8.30

Name the reported pIC50 value associated with the compound Cn1nccc1[C@]1(CNC(=O)c2cc3cc(Cl)ccc3o2)NC(=O)NC1=O 7.66

----------
I'd be grateful if you could share measured concentration at 2 h for these entries.
- assayOverview: Plasma concentration in rat at 10 mg/kg, po after 2 hrs
- Format: ADME, organism-based
- Parameters: dose 10 mg/kg, route oral
Report only the number, with the unit ng/mL understood.

Name the reported concentration at 2 h value associated with the compound C[C@]1(CNC(=O)COc2ccc(Cl)cc2)NC(=O)NC1=O 430

Name the reported concentration at 2 h value associated with the compound C[C@@]1(O)CCCN(S(=O)(=O)c2ccc(OCc3ccc(F)cc3Cl)cc2)[C@H]1C(=O)NO 1900

Name the reported concentration at 2 h value associated with the compound Cn1ccnc1[C@]1(CNC(=O)c2cc3cc(Cl)ccc3o2)NC(=O)NC1=O 2200

Name the reported concentration at 2 h value associated with the compound Cn1ccnc1[C@]1(CNC(=O)c2cc3cc(C(F)(F)F)ccc3o2)NC(=O)NC1=O 1100

Name the reported concentration at 2 h value associated with the compound O=C1NC(=O)[C@](CNC(=O)c2cc3cc(Cl)ccc3o2)(c2nccs2)N1 4300

----------
I'd be grateful if you could share measured IC50 for these entries.
- targetOfAssay: Disintegrin and metalloproteinase domain-containing protein 17 (Homo sapiens, UniProt P78536)
- Sequence (P78536 whole entry, the tested form may be a part): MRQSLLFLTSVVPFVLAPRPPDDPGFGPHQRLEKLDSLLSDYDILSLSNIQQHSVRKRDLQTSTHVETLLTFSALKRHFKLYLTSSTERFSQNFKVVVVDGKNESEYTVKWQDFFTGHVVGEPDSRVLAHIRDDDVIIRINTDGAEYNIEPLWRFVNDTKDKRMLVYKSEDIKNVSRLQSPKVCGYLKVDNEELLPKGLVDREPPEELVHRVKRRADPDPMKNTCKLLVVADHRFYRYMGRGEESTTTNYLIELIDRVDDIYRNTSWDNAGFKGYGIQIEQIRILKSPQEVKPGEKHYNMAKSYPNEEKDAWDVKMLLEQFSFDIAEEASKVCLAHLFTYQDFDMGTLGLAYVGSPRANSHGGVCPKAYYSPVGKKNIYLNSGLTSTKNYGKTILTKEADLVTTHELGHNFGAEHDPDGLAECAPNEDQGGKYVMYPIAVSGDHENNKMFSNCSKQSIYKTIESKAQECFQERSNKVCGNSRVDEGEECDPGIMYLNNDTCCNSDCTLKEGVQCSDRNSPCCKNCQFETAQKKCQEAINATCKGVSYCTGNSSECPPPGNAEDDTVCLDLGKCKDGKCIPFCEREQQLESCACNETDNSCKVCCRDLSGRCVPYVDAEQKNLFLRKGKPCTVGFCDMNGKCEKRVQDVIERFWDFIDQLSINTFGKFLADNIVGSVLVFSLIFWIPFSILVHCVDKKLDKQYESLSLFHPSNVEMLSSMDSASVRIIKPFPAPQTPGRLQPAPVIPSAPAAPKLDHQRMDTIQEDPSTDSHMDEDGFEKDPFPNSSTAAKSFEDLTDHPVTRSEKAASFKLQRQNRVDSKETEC
Form entry: enter the amount, then its unit.

Name the reported IC50 value associated with the compound Cn1ccnc1[C@]1(CNC(=O)c2cc3cc(C(F)(F)F)ccc3o2)NC(=O)NC1=O 10 µM

Name the reported IC50 value associated with the compound C[C@@]1(O)CCCN(S(=O)(=O)c2ccc(OCc3ccc(F)cc3Cl)cc2)[C@H]1C(=O)NO 0.007 µM

Name the reported IC50 value associated with the compound O=C1NC(=O)[C@](CNC(=O)c2cc3cc(Cl)ccc3o2)(c2ccccc2)N1 5.4 µM

----------
- assayOverview: Tmax in Sprague-Dawley rat at 10 mg/kg, po
- Format: ADME, organism-based
- Design: dose 10 mg/kg, route oral
- cond: in vivo
reportedEndpoint: Tmax (min)
Report only the number, with the unit min understood.

Name the reported Tmax value associated with the molecule O=C1NC(=O)[C@](CNC(=O)c2cc3cc(Cl)ccc3o2)(c2nccs2)N1 19.8

Name the reported Tmax value associated with the molecule Cn1ccnc1[C@]1(CNC(=O)c2cc3cc(Cl)ccc3o2)NC(=O)NC1=O 19.8

Name the reported Tmax value associated with the molecule Cn1ccnc1[C@]1(CNC(=O)c2cc3cc(C(F)(F)F)ccc3o2)NC(=O)NC1=O 96

----------
Target chain: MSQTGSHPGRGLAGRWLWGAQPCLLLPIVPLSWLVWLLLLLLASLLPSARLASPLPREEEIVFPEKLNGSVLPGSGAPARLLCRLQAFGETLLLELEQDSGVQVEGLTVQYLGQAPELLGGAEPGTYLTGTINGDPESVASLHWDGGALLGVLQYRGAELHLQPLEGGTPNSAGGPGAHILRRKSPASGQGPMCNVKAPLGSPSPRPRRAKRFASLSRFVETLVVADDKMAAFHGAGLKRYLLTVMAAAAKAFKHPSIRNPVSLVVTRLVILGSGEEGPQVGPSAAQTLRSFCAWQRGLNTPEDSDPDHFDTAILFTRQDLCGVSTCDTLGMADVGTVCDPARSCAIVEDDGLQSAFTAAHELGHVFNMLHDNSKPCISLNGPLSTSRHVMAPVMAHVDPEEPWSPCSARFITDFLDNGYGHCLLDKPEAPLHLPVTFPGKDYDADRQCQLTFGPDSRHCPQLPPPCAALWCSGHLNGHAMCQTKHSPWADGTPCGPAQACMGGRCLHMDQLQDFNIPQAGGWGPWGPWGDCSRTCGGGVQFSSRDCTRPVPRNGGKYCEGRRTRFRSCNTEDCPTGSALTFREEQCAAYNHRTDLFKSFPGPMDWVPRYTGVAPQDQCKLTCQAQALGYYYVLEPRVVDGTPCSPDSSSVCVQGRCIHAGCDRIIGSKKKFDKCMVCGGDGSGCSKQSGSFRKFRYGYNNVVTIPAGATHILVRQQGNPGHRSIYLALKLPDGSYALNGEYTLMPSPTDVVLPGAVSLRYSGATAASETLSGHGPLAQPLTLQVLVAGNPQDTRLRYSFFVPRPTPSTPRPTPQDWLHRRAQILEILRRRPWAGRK
reportedEndpoint: pIC50
# pIC50 is unitless: minus log10 of the molar concentration; print number only

Name the reported pIC50 value associated with the molecule Cn1ccnc1[C@]1(CNC(=O)c2cc3cc(C(F)(F)F)ccc3o2)NC(=O)NC1=O 8.40

Name the reported pIC50 value associated with the molecule Cc1cccnc1[C@]1(CNC(=O)c2cc3cc(Cl)ccc3o2)NC(=O)NC1=O (racemic) 7.77

Name the reported pIC50 value associated with the molecule O=C1NC(=O)[C@](CNC(=O)c2cc3cc(Cl)ccc3o2)(c2ccccc2)N1 7.92

----------
- assayOverview: Plasma concentration in rat at 10 mg/kg, po after 8 hrs
- Format: ADME, organism-based
- Design: dose 10 mg/kg, route oral
I'd be grateful if you could share measured concentration at 8 h for these entries.
Report only the number, with the unit ng/mL understood.

Name the reported concentration at 8 h value associated with the compound C[C@@]1(O)CCCN(S(=O)(=O)c2ccc(OCc3ccc(F)cc3Cl)cc2)[C@H]1C(=O)NO 840

Name the reported concentration at 8 h value associated with the compound Cn1ccnc1[C@]1(CNC(=O)c2cc3cc(C(F)(F)F)ccc3o2)NC(=O)NC1=O 90

Name the reported concentration at 8 h value associated with the compound C[C@]1(CNC(=O)COc2ccc(Cl)cc2)NC(=O)NC1=O 50

Name the reported concentration at 8 h value associated with the compound O=C1NC(=O)[C@](CNC(=O)c2cc3cc(Cl)ccc3o2)(c2nccs2)N1 1300

Name the reported concentration at 8 h value associated with the compound Cn1ccnc1[C@]1(CNC(=O)c2cc3cc(Cl)ccc3o2)NC(=O)NC1=O 80

----------
- assayOverview: AUC in Sprague-Dawley rat at 10 mg/kg, po
- Assay type: ADME, organism-based
- Set-up: dose 10 mg/kg, route oral
- cond: plasma
I'd be grateful if you could share measured AUC for these entries.
Report only the number, with the unit µg·h/mL understood.

Name the reported AUC value associated with the compound Cn1ccnc1[C@]1(CNC(=O)c2cc3cc(Cl)ccc3o2)NC(=O)NC1=O 8.1

Name the reported AUC value associated with the compound O=C1NC(=O)[C@](CNC(=O)c2cc3cc(Cl)ccc3o2)(c2nccs2)N1 28

Name the reported AUC value associated with the compound Cn1ccnc1[C@]1(CNC(=O)c2cc3cc(C(F)(F)F)ccc3o2)NC(=O)NC1=O 8.5

----------
- targetOfAssay: A disintegrin and metalloproteinase with thrombospondin motifs 5 (Homo sapiens)
- Sequence (Q9UNA0 whole entry): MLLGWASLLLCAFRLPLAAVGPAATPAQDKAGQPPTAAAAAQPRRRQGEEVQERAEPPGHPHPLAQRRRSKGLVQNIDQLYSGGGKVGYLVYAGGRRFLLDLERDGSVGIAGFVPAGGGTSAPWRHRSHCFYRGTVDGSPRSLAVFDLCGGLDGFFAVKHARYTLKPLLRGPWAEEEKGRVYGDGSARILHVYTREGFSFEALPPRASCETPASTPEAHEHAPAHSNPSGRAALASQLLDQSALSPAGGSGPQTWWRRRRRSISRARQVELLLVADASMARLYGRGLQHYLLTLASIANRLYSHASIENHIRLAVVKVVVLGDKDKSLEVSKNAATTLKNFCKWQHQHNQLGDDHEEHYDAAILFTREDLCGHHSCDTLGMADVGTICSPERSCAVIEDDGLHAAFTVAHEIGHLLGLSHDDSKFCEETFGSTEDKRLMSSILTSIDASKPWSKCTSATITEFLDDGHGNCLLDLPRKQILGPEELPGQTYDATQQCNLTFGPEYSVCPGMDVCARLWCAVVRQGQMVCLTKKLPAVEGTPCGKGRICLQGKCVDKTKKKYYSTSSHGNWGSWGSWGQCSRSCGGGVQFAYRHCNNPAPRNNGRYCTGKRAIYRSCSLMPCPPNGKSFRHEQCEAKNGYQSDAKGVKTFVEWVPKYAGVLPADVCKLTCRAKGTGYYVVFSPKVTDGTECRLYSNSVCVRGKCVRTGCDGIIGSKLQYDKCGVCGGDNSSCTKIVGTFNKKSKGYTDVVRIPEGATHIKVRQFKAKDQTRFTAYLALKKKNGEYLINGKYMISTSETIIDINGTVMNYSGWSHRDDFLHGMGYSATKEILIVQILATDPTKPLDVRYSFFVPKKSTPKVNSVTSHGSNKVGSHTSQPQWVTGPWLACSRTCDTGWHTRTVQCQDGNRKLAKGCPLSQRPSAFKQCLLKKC
- assayOverview: Inhibition of human ADAMTS-5 using VQTVTWPDMELPLPRNITEGEARGSVILTVKPIFEVSPSPLKG peptide substrate by AlphaScreen assay
Fulfilled if IC50 is below 20 nM. Not fulfilled if not; exact matches included in Not fulfilled.

In the record for Cn1ccnc1[C@]1(CNC(=O)c2cc3cc(Cl)ccc3o2)NC(=O)NC1=O , is IC50 less than 20 nM? Fulfilled

In the record for O=C1NC(=O)[C@](CNC(=O)c2cc3cc(Cl)ccc3o2)(c2ccccc2)N1 , is IC50 less than 20 nM? Not fulfilled

In the record for C[C@]1(CNC(=O)c2cc3cc(Cl)ccc3o2)NC(=O)NC1=O (racemic) , is IC50 less than 20 nM? Not fulfilled

In the record for Cc1cccnc1[C@]1(CNC(=O)c2cc3cc(Cl)ccc3o2)NC(=O)NC1=O (racemic) , is IC50 less than 20 nM? Fulfilled

In the record for Cn1ccnc1[C@]1(CNC(=O)c2cc3cc(C(F)(F)F)ccc3o2)NC(=O)NC1=O , is IC50 less than 20 nM? Fulfilled

In the record for Cn1nccc1[C@]1(CNC(=O)c2cc3cc(Cl)ccc3o2)NC(=O)NC1=O , is IC50 less than 20 nM? Fulfilled
